Hello, the source for this data is paper PMC11995724, in case you need it.

Readings of % of control remaining for the listed molecules
System: V. cholerae SAD30
Construct: SAD30
Design: species or system S. aureus MSSA476 (TSB) or V. cholerae SAD30 (LB); 384-well bacterial growth screen at 25 uM, OD600 relative to DMSO control
recorded.conditions: relative growth, OD600, LB; 25 µM; inhibitor
Hit rate of the full screen: of about 3,200 compounds, about 110 (3.4%) showed an effect of 50% or more. The sample holds strong results, similar compounds and a random draw of the others, so the mix is not that of the screen.
Unit % implied. Number only.

Below, 5 molecules whose answers are already recorded.
> print(dat)
                             molecule  measurement.units  readout.number
1   COC(=O)c1ccc2[nH]cc(C(=O)CCl)c2c1                  %         99.1233
2                   O=C(CCl)c1sccc1Cl                  %               0
3  Cc1cc(C(=O)CCl)c(C)n1-c1ccc(Cl)cc1                  %         103.331
4     CN(CC(=O)Nc1cccc(Cl)c1)C(=O)CCl                  %         84.0601
5             O=C(O)c1csc(C(=O)CCl)c1                  %         102.864

Switching to the query record.
QUERY: Lab request: please report % of control remaining under test system V. cholerae SAD30 for COC(=O)c1cccc(C(=O)CCl)c1 [10-I11, methyl 3-(2-chloroacetyl)benzoate]
RESULT: 32.4177
